- Test system: NCI-H211 complex spheroid viability
- Protocol Summary: Anticancer human tumor NCI-H211 cell line growth inhibition [LSD1]
- Condition: second compound 0.1 µM; first compound 0.003 µM; stronger effect = lower value
Entries and their viability, T/C
Give just the number in %; leave the unit off.

Request: viability, T/C, test system NCI-H211 complex spheroid viability, entry CCc1c2c(nc3ccc(O)cc13)-c1cc3c(c(=O)n1C2)COC(=O)[C@]3(O)CC + NC1CCC(NC2CC2c2ccccc2)CC1
3.23

Request: viability, T/C, test system NCI-H211 complex spheroid viability, entry CCc1c2c(nc3ccc(O)cc13)-c1cc3c(c(=O)n1C2)COC(=O)[C@]3(O)CC + NC1CC1c1ccc(-c2cccc(O)c2)cc1
1.7

Request: viability, T/C, test system NCI-H211 complex spheroid viability, entry Nc1ncn(C2CC(O)C(CO)S2)c(=O)n1 (stereo unspecified) + NC1CC1c1ccc(-c2cccc(O)c2)cc1
20.8

Request: viability, T/C, test system NCI-H211 complex spheroid viability, entry Nc1ccn(C2OC(CO)C(O)C2(F)F)c(=O)n1 (stereo unspecified) + NC1CC1c1ccc(-c2cccc(O)c2)cc1
3.12

Request: viability, T/C, test system NCI-H211 complex spheroid viability, entry Nc1ccn(C2OC(CO)C(O)C2(F)F)c(=O)n1 (stereo unspecified) + NC1CCC(NC2CC2c2ccccc2)CC1
2.16

Request: viability, T/C, test system NCI-H211 complex spheroid viability, entry Nc1ncn(C2CC(O)C(CO)S2)c(=O)n1 (stereo unspecified) + NC1CCC(NC2CC2c2ccccc2)CC1
27.1

###

- Tested on: NCI-H211 complex spheroid viability
- Protocol Summary: Anticancer human tumor NCI-H211 cell line growth inhibition [LSD1];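 note: luminescent viability read after seven days of drug exposure; 100% = DMSO vehicle control viability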
- Condition: second compound 10 µM; first compound 0.1 µM; stronger effect = lower value
- Source text: Multicellular complex tumor spheroid response to LSD1 Inhibitor Iadademstat in combination with a variety of drugs and investigational agents in selected tumor cell lines The current study was undertaken to assess response to LSD1 inhibitors in combination with standard-of-care drugs and investigational agents in solid tumor complex spheroid models as well as in the K-562 leukemia. […] Compounds. […] If the clinical Cmax for an agent had not been determined, the highest concentration tested was 10 microM. […]
# Met = viability, T/C below 5% (exclusive); Not met = viability, T/C at/above 5%

The examples below pair each entry with its known result.
* CC1(C)CCC(CN2CCN(c3ccc(C(=O)NS(=O)(=O)c4ccc(NCC5CCOCC5)c([N+](=O)[O-])c4)c(Oc4cnc5[nH]ccc5c4)c3)CC2)=C(c2ccc(Cl)cc2)C1 + NC1CCC(NC2CC2c2ccccc2)CC1 | Not met
* O=C(C=Cn1cnc(-c2cc(C(F)(F)F)cc(C(F)(F)F)c2)n1)NNc1cnccn1 + NC1CCC(NC2CC2c2ccccc2)CC1 | Met
* COc1ccc([C@@H](O)c2cc(-c3ncnc4cc(N5CCOCC5)ccc34)c(F)cc2Cl)nn1 + NC1CC1c1ccc(-c2cccc(O)c2)cc1 | Not met
* CC[C@@]1(O)C(=O)OCc2c1cc1n(c2=O)Cc2cc3c(CN(C)C)c(O)ccc3nc2-1 + NC1CC1c1ccc(-c2cccc(O)c2)cc1 | Met

Bench note: check whether CC(C)c1c(-c2ccccc2)nc2c(C#N)c[nH]n2c1=O + NC1CC1c1ccc(-c2cccc(O)c2)cc1 shows viability, T/C below 5%
Not met

Bench note: check whether CC(C)CC(NC(=O)C(Cc1ccccc1)NC(=O)c1cnccn1)B(O)O (centres undefined) + NC1CC1c1ccc(-c2cccc(O)c2)cc1 shows viability, T/C below 5%
Met

Bench note: check whether COc1cc(Nc2ncc3c(n2)-c2ccc(Cl)cc2C(c2c(F)cccc2OC)=NC3)ccc1C(=O)O + NC1CCC(NC2CC2c2ccccc2)CC1 shows viability, T/C below 5%
Met

Bench note: check whether O=C(c1cc(Cc2n[nH]c(=O)c3ccccc23)ccc1F)N1CCN(C(=O)C2CC2)CC1 + NC1CCC(NC2CC2c2ccccc2)CC1 shows viability, T/C below 5%
Not met

Bench note: check whether Nc1ncn(C2CC(O)C(CO)O2)c(=O)n1 (centres undefined) + NC1CCC(NC2CC2c2ccccc2)CC1 shows viability, T/C below 5%
Met

Bench note: check whether Nc1ncn(C2CC(O)C(CO)O2)c(=O)n1 (centres undefined) + NC1CC1c1ccc(-c2cccc(O)c2)cc1 shows viability, T/C below 5%
Not met

Bench note: check whether CC[C@@]1(O)C(=O)OCc2c1cc1n(c2=O)Cc2cc3c(CN(C)C)c(O)ccc3nc2-1 + NC1CCC(NC2CC2c2ccccc2)CC1 shows viability, T/C below 5%
Met

Bench note: check whether CC1COCCN1c1cc(-c2ccnn2C)c2ccnc(-c3ccn[nH]3)c2n1 (centres undefined) + NC1CCC(NC2CC2c2ccccc2)CC1 shows viability, T/C below 5%
Met

Bench note: check whether Cn1ncnc1C1c2n[nH]c(=O)c3cc(F)cc(c23)NC1c1ccc(F)cc1 (centres undefined) + NC1CCC(NC2CC2c2ccccc2)CC1 shows viability, T/C below 5%
Met

Bench note: check whether CC(C)c1c(-c2ccccc2)nc2c(C#N)c[nH]n2c1=O + NC1CCC(NC2CC2c2ccccc2)CC1 shows viability, T/C below 5%
Not met

###

- Tested on: NCI-H211 complex spheroid viability
- Protocol Summary: Anticancer human tumor NCI-H211 cell line growth inhibition [LSD1]; active = viability on the fitted dose curve at most 10% of control; inactive = the rest;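 note: luminescent viability read after seven days of drug exposure; 100% = DMSO vehicle control viability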
- Condition: second compound 0.1 µM; first compound 3.16 µM
Outcomes you can answer with include only these: active, inactive

The examples below pair each entry with its known result.
- CC1COCCN1c1cc(C2(S(C)(=N)=O)CC2)nc(-c2ccnc3[nH]ccc23)n1 (centres undefined) + NC1CCC(NC2CC2c2ccccc2)CC1: active
- O=C(c1cc(Cc2n[nH]c(=O)c3ccccc23)ccc1F)N1CCN(C(=O)C2CC2)CC1 + NC1CC1c1ccc(-c2cccc(O)c2)cc1: active
- CC(C)c1c(-c2ccccc2)nc2c(C#N)c[nH]n2c1=O + NC1CC1c1ccc(-c2cccc(O)c2)cc1: inactive

Could you check what this test reported for CC(C)c1c(-c2ccccc2)nc2c(C#N)c[nH]n2c1=O + NC1CCC(NC2CC2c2ccccc2)CC1 ?
inactive

###

- System: NCI-H211 complex spheroid viability
- Protocol Summary: Anticancer human tumor NCI-H211 cell line growth inhibition [LSD1]; active = viability on the fitted dose curve at most 10% of control; inactive = the rest;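 note: luminescent viability read after seven days of drug exposure; 100% = DMSO vehicle control viability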
- Condition: second compound 0.316 µM; first compound 3 µM
Outcomes you can answer with include only these: yes (1) (active), no (0) (inactive)

Could you check what this test reported for CCN(c1cc(-c2ccc(CN3CCOCC3)cc2)cc(C(=O)NCc2c(C)cc(C)[nH]c2=O)c1C)C1CCOCC1 + NC1CC1c1ccc(-c2cccc(O)c2)cc1 ?
no (0)

Could you check what this test reported for O=C(C=Cc1cccc(S(=O)(=O)Nc2ccccc2)c1)NO + NC1CC1c1ccc(-c2cccc(O)c2)cc1 ?
yes (1)

Could you check what this test reported for COc1cc(C2c3cc4c(cc3C(OC3OC5COC(C)OC5C(O)C3O)C3COC(=O)C23)OCO4)cc(OC)c1O (stereo not given) + NC1CCC(NC2CC2c2ccccc2)CC1 ?
yes (1)

Could you check what this test reported for CCN(c1cc(-c2ccc(CN3CCOCC3)cc2)cc(C(=O)NCc2c(C)cc(C)[nH]c2=O)c1C)C1CCOCC1 + NC1CCC(NC2CC2c2ccccc2)CC1 ?
no (0)

Could you check what this test reported for NS(=O)(=O)OCC1CC(n2ccc3c(NC4CCc5ccccc54)ncnc32)CC1O (stereo not given) + NC1CCC(NC2CC2c2ccccc2)CC1 ?
yes (1)

Could you check what this test reported for Nc1ccccc1NC(=O)c1ccc(CNC(=O)OCc2cccnc2)cc1 + NC1CC1c1ccc(-c2cccc(O)c2)cc1 ?
yes (1)

Could you check what this test reported for Nc1ccccc1NC(=O)c1ccc(CNC(=O)OCc2cccnc2)cc1 + NC1CCC(NC2CC2c2ccccc2)CC1 ?
yes (1)

Could you check what this test reported for COc1cc(C2c3cc4c(cc3C(OC3OC5COC(C)OC5C(O)C3O)C3COC(=O)C23)OCO4)cc(OC)c1O (stereo not given) + NC1CC1c1ccc(-c2cccc(O)c2)cc1 ?
yes (1)

Could you check what this test reported for O=C(C=Cc1cccc(S(=O)(=O)Nc2ccccc2)c1)NO + NC1CCC(NC2CC2c2ccccc2)CC1 ?
yes (1)

Could you check what this test reported for NS(=O)(=O)OCC1CC(n2ccc3c(NC4CCc5ccccc54)ncnc32)CC1O (stereo not given) + NC1CC1c1ccc(-c2cccc(O)c2)cc1 ?
yes (1)

###

- Test system: NCI-H211 complex spheroid viability
- Protocol Summary: Anticancer human tumor NCI-H211 cell line growth inhibition [LSD1];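 note: luminescent viability read after seven days of drug exposure; 100% = DMSO vehicle control viability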
- Condition: second compound 0.1 µM; first compound 0.316 µM; stronger effect = lower value
Measurement Type: viability, T/C (%)
Give just the number in %; leave the unit off.

Entry COc1ccc([C@@H](O)c2cc(-c3ncnc4cc(N5CCOCC5)ccc34)c(F)cc2Cl)nn1 + NC1CC1c1ccc(-c2cccc(O)c2)cc1 : reported viability, T/C = ?
75

Entry CC1COCCN1c1cc(-c2ccnn2C)c2ccnc(-c3ccn[nH]3)c2n1 (configuration not stated) + NC1CC1c1ccc(-c2cccc(O)c2)cc1 : reported viability, T/C = ?
3.56

Entry O=C(C=Cn1cnc(-c2cc(C(F)(F)F)cc(C(F)(F)F)c2)n1)NNc1cnccn1 + NC1CC1c1ccc(-c2cccc(O)c2)cc1 : reported viability, T/C = ?
2.54

Entry O=C(c1cc(Cc2n[nH]c(=O)c3ccccc23)ccc1F)N1CCN(C(=O)C2CC2)CC1 + NC1CC1c1ccc(-c2cccc(O)c2)cc1 : reported viability, T/C = ?
7.94

Entry O=C(c1cc(Cc2n[nH]c(=O)c3ccccc23)ccc1F)N1CCN(C(=O)C2CC2)CC1 + NC1CCC(NC2CC2c2ccccc2)CC1 : reported viability, T/C = ?
6.09

Entry Nc1ncn(C2CC(O)C(CO)O2)c(=O)n1 (configuration not stated) + NC1CCC(NC2CC2c2ccccc2)CC1 : reported viability, T/C = ?
1.96

Entry CC(C)c1c(-c2ccccc2)nc2c(C#N)c[nH]n2c1=O + NC1CCC(NC2CC2c2ccccc2)CC1 : reported viability, T/C = ?
72
